Field: α-glucosidase inhibition, inhibition (%) at 0.5 mM. Provide a value for each of the compounds that follow.
targetSystem: α-glucosidase (Saccharomyces cerevisiae)
Sequence (P53341 whole entry): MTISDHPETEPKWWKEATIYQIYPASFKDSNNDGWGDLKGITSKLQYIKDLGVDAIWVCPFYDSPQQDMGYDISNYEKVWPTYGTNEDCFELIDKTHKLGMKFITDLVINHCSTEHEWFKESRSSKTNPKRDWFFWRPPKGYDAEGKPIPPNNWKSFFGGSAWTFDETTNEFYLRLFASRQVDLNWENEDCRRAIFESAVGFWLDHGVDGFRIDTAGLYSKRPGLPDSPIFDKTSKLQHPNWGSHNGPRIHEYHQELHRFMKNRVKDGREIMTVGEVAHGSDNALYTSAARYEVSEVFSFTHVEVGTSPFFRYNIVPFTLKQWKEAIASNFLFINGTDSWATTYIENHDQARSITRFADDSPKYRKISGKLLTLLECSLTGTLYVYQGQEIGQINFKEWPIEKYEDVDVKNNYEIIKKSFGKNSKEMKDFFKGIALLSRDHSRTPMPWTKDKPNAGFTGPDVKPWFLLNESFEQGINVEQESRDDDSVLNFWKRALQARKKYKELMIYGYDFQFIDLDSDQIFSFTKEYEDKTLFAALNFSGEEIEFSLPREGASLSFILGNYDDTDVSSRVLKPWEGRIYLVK
runDescription: α-Glucosidase assay
Assay type: biochemical
testParameters: 0.5 mM; mean ± SEM, triplicate
Numbers only, in %.

compound	quantitativeResult
Cc1ccc(NC(=O)CSc2nnc(C3CCN(S(=O)(=O)c4ccc(C)cc4)CC3)n2C)cc1 [Compound 12e]	72.75

# batch: return α-glucosidase inhibition, inhibition (%) at 0.5 mM for each of the 3 compounds below
1. Cc1ccc(S(=O)(=O)N2CCC(c3nnc(SCC(=O)NC4CCCCC4)n3C)CC2)cc1 [Compound 12a]
2. Cc1ccc(S(=O)(=O)N2CCC(c3nnc(SCC(=O)Nc4c(C)cccc4C)n3C)CC2)cc1 [Compound 12l]
3. COc1ccccc1NC(=O)CSc1nnc(C2CCN(S(=O)(=O)c3ccc(C)cc3)CC2)n1C [Compound 12g]

1: 87.25; 2: 53.67; 3: 71.45

Requested read-out: α-glucosidase inhibition, inhibition (%) at 0.5 mM. Entry: Cc1ccc(S(=O)(=O)N2CCC(c3nnc(SCC(=O)Nc4c(C)cccc4[N+](=O)[O-])n3C)CC2)cc1 [Compound 12o]
72.23
